- assay: AUClast in ICR mouse at 20 mg/kg, po
- Format: ADME, organism-based
- stated-conditions: in vivo
measurement-type: AUC(0-t) (µg·h/mL)
Number in µg·h/mL, nothing else.

Example entries begin here.
structure-string: CNC(=O)c1cc(Br)cc([N+](=O)[O-])c1N[C@@H]1CCCC[C@@H]1NC(=O)c1cc(=O)[nH]c2ccccc12
endpoint-value: 0.0236
//
structure-string: CN1CCN(C(=O)c2cc(Br)cc([N+](=O)[O-])c2N[C@@H]2CCCC[C@@H]2NC(=O)c2cc(=O)[nH]c3c(F)cccc23)CC1
endpoint-value: 0.0706
//
structure-string: CNC(=O)c1cc(Br)cc([N+](=O)[O-])c1N[C@@H]1CCCC[C@@H]1NC(=O)c1cc(=O)[nH]c2c(F)cccc12
endpoint-value: 0.0561

Please find the next compound below.
## Input I am curious: what AUC(0-t) value has been reported for "O=C(N[C@H]1CCCC[C@H]1Nc1c(C(=O)N2CCOCC2)cc(Br)cc1[N+](=O)[O-])c1cc(=O)[nH]c2c(F)cccc12" ?
## Output 0.0212

---

- assay: Inhibition of mouse hepatitis virus 3CLpro by FRET-enzymatic assay
- Design: species or system Murine hepatitis virus
pIC50: −log10 of the molar value.
measurement-type: pIC50

## Input I am curious: what pIC50 value has been reported for "CN1CCN(C(=O)c2cc(Br)cc([N+](=O)[O-])c2N[C@@H]2CCCC[C@@H]2NC(=O)c2cc(=O)[nH]c3c(F)cccc23)CC1" ?
## Output < 5.00

---

- subject-of-test: Replicase polyprotein 1ab (Severe acute respiratory syndrome coronavirus 2)
measurement-type: pIC50
Note: pIC50 values are expressed as the negative base-10 logarithm of concentration in M.

## Input Please provide the recorded pIC50 for O=C(c1cc(=O)[nH]c2ccccc12)N1CCN(c2ccc(Cl)c(Cl)c2)CC1CN1CCOCC1 (stereo unspecified) , tested on Replicase polyprotein 1ab (Severe acute respiratory syndrome coronavirus 2).
## Output 6.82

---

- subject-of-test: Cathepsin D (Homo sapiens)
- Sequence (P07339 65-162 limits assumed): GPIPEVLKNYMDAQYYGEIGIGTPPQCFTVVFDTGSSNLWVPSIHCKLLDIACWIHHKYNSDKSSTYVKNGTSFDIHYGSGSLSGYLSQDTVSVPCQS
- Sequence (P07339 169-412 limits assumed): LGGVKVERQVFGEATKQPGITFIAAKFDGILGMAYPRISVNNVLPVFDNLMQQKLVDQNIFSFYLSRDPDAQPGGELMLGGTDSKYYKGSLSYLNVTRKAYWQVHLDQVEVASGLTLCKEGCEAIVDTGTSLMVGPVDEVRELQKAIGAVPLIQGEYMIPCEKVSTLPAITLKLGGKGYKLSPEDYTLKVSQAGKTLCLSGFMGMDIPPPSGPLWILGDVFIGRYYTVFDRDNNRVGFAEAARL
measurement-type: IC50

## Input Please provide the recorded IC50 for "CN1CCN(C(=O)c2cc(Br)cc([N+](=O)[O-])c2N[C@@H]2CCCC[C@@H]2NC(=O)c2cc(=O)[nH]c3c(F)cccc23)CC1" , tested on Cathepsin D (Homo sapiens).
## Output > 100 µM

---

- subject-of-test: Replicase polyprotein 1ab (Severe acute respiratory syndrome coronavirus 2)
- stated-conditions: dose 31.25-1000 nM, time 100.0 sec
compounds and their reported K

structure-string: CNC(=O)c1cc(Br)cc([N+](=O)[O-])c1N[C@@H]1CCCC[C@@H]1NC(=O)c1cc(=O)[nH]c2ccccc12
endpoint-value: 2.1 10^5/M/s
--
structure-string: CNC(=O)c1cc(Br)cc([N+](=O)[O-])c1N[C@@H]1CCCC[C@@H]1NC(=O)c1cc(=O)[nH]c2c(F)cccc12
endpoint-value: 7.5 10^5/M/s
--
structure-string: CN1CCN(C(=O)c2cc(Br)cc([N+](=O)[O-])c2N[C@@H]2CCCC[C@@H]2NC(=O)c2cc(=O)[nH]c3c(F)cccc23)CC1
endpoint-value: 3.8 10^5/M/s

## Input I am curious: what K value has been reported for "O=C(N[C@H]1CCCC[C@H]1Nc1c(C(=O)N2CCOCC2)cc(Br)cc1[N+](=O)[O-])c1cc(=O)[nH]c2c(F)cccc12" ?
## Output 5.4 10^5/M/s

---

- assay: Tmax in ICR mouse at 20 mg/kg, po
- Assay type: ADME, organism-based
- stated-conditions: in vivo
compounds and their reported Tmax
Number in min, nothing else.

Example entries begin here.
structure-string: CNC(=O)c1cc(Br)cc([N+](=O)[O-])c1N[C@@H]1CCCC[C@@H]1NC(=O)c1cc(=O)[nH]c2c(F)cccc12
measurement-type: Tmax
endpoint-value: 3
//
structure-string: CNC(=O)c1cc(Br)cc([N+](=O)[O-])c1N[C@@H]1CCCC[C@@H]1NC(=O)c1cc(=O)[nH]c2ccccc12
measurement-type: Tmax
endpoint-value: 15
//
structure-string: CN1CCN(C(=O)c2cc(Br)cc([N+](=O)[O-])c2N[C@@H]2CCCC[C@@H]2NC(=O)c2cc(=O)[nH]c3c(F)cccc23)CC1
measurement-type: Tmax
endpoint-value: 3

Please find the next compound below.
## Input I am curious: what Tmax value has been reported for "O=C(N[C@H]1CCCC[C@H]1Nc1c(C(=O)N2CCOCC2)cc(Br)cc1[N+](=O)[O-])c1cc(=O)[nH]c2c(F)cccc12" ?
## Output 15

---

- subject-of-test: Cathepsin B (Homo sapiens)
pIC50: −log10 of the molar value.
measurement-type: pIC50

## Input Please provide the recorded pIC50 for "CN1CCN(C(=O)c2cc(Br)cc([N+](=O)[O-])c2N[C@@H]2CCCC[C@@H]2NC(=O)c2cc(=O)[nH]c3c(F)cccc23)CC1" , tested on Cathepsin B (Homo sapiens).
## Output < 4.00

---

- assay: Half-life in ICR mouse at 20 mg/kg, po
- Format: ADME, organism-based
- stated-conditions: in vivo
compounds and their reported half-life
Number in h, nothing else.

Example entries begin here.
structure-string: O=C(N[C@H]1CCCC[C@H]1Nc1c(C(=O)N2CCOCC2)cc(Br)cc1[N+](=O)[O-])c1cc(=O)[nH]c2c(F)cccc12
half-life (h): 0.8
--
structure-string: CN1CCN(C(=O)c2cc(Br)cc([N+](=O)[O-])c2N[C@@H]2CCCC[C@@H]2NC(=O)c2cc(=O)[nH]c3c(F)cccc23)CC1
half-life (h): 1.21
--
structure-string: CNC(=O)c1cc(Br)cc([N+](=O)[O-])c1N[C@@H]1CCCC[C@@H]1NC(=O)c1cc(=O)[nH]c2c(F)cccc12
half-life (h): 2.31

## Input I am curious: what half-life value has been reported for "CNC(=O)c1cc(Br)cc([N+](=O)[O-])c1N[C@@H]1CCCC[C@@H]1NC(=O)c1cc(=O)[nH]c2ccccc12" ?
## Output 3.85

---

pIC50 data for Replicase polyprotein 1ab (Severe acute respiratory syndrome coronavirus 2) follow.
Note: pIC50 values are expressed as the negative base-10 logarithm of concentration in M.

## Input Please provide the recorded pIC50 for "COc1ccc2[nH]c(=O)cc(C(=O)N[C@H]3CCCC[C@H]3Nc3c(C(=O)N4CCN(C)CC4)cc(Br)cc3[N+](=O)[O-])c2c1" , tested on Replicase polyprotein 1ab (Severe acute respiratory syndrome coronavirus 2).
## Output 7.74

---

- subject-of-test: Procathepsin L (Homo sapiens)
- Sequence (P07711 whole entry): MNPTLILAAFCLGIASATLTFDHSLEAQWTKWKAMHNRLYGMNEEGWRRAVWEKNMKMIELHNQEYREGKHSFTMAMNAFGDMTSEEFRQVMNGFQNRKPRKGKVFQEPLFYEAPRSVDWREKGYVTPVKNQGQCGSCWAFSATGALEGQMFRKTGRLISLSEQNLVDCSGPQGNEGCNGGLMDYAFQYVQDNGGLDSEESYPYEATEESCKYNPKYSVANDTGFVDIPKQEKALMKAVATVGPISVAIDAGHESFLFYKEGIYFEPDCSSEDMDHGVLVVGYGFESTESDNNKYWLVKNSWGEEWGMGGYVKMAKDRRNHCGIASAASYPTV
measurement-type: IC50

## Input Please provide the recorded IC50 for "CN1CCN(C(=O)c2cc(Br)cc([N+](=O)[O-])c2N[C@@H]2CCCC[C@@H]2NC(=O)c2cc(=O)[nH]c3c(F)cccc23)CC1" , tested on Procathepsin L (Homo sapiens).
## Output > 100 µM

---

log10(IC50) data for Replicase polyprotein 1ab (Severe acute respiratory syndrome coronavirus 2) follow.
Please note: log10 values; quantity IC50; unit nM.

Example entries begin here.
molecule: O=C(C1CN(c2ccc(Cl)c(Cl)c2)CCN1C(=O)c1cc(=O)[nH]c2ccccc12)N1CC2(COC2)C1 (stereo not given)
subject-of-test: Replicase polyprotein 1ab (Severe acute respiratory syndrome coronavirus 2)
endpoint-value: 3.32
--
molecule: CN1CCN(C(=O)c2cc(C3CC3)cc([N+](=O)[O-])c2N[C@@H]2CCC[C@@H]2NC(=O)c2cc(=O)[nH]c3c(F)cccc23)CC1
subject-of-test: Replicase polyprotein 1ab (Severe acute respiratory syndrome coronavirus 2)
endpoint-value: 1.45
--
molecule: O=C(N[C@H]1CCC[C@H]1Nc1c(C(=O)N2CCOCC2)cc(C2CC2)cc1[N+](=O)[O-])c1cc(=O)[nH]c2ccccc12
subject-of-test: Replicase polyprotein 1ab (Severe acute respiratory syndrome coronavirus 2)
endpoint-value: 1.37
--
molecule: CN1CCN(C(=O)c2cc(Br)cc([N+](=O)[O-])c2N[C@@H]2CCC[C@@H]2NC(=O)c2cc(=O)[nH]c3ccccc23)CC1
subject-of-test: Replicase polyprotein 1ab (Severe acute respiratory syndrome coronavirus 2)
endpoint-value: 1.36

Please find the next molecule below.
## Input Please provide the recorded log10(IC50) for "COc1ccc2[nH]c(=O)cc(C(=O)N[C@H]3CCC[C@H]3Nc3c(C(=O)N4CCN(C)CC4)cc(C4CC4)cc3[N+](=O)[O-])c2c1" , tested on Replicase polyprotein 1ab (Severe acute respiratory syndrome coronavirus 2).
## Output 1.38

---

- subject-of-test: UniProtKB P00734
- assay: Inhibition of human thrombin using benzoyl-FVR-AMC as substrate incubated for 10 mins by FRET-enzymatic assay
pIC50: −log10 of the molar value.
measurement-type: pIC50

## Input I am curious: what pIC50 value has been reported for "CN1CCN(C(=O)c2cc(Br)cc([N+](=O)[O-])c2N[C@@H]2CCCC[C@@H]2NC(=O)c2cc(=O)[nH]c3c(F)cccc23)CC1" ?
## Output < 4.00

Values from ChEMBL document CHEMBL5523769
